This section presents compounds with their documented normalised viability values.
- System: BT-549
- Experimental Protocol: normalised viability (% of control), CellTiter-Blue; higher = more viable cells (about 100 = DMSO control)
- Details: 10 nM; incubation time: 72 h
Readout: normalised viability (%)

> print(dat)
                                   compound  assayed.target  units.of.measure  value
1  COc1cc(Nc2ncc(F)c(Nc3ccc4c(n3)NC(=O)C(C)(C)O4)n2)cc(OC)c1OC [R406]          BT-549                 %   89.7
2  C#Cc1cccc(Nc2ncnc3cc(OC)c(OCCCCCCC(=O)NO)cc23)c1 [CUDC-101]          BT-549                 %   90.3
3  CN1CCN(c2ccc3nc(-c4c(N)c5c(F)cccc5[nH]c4=O)[nH]c3c2)CC1 [Dovitinib]          BT-549                 %     83
4  COc1ccc(C2=N[C@@H](c3ccc(Cl)cc3)[C@@H](c3ccc(Cl)cc3)N2C(=O)N2CCNC(=O)C2)c(OC(C)C)c1 [Nutlin-3]          BT-549                 %   91.3
